Assay: photoluminescence quantum yield (fraction); solvent given as SMILES
Conditions: in CCCCOCCCC
Known photoluminescence quantum yield of a selection of compounds
Format: numeric value only, no unit, no commentary.

Take a look at these entries with their results.
COMPOUND_STRUCTURE_STRING | photoluminescence quantum yield
COc1nc(Nc2ccc3ccc4cccc5ccc2c3c45)nc(OC)n1 | 0.57
COc1ccc2c3c(cccc13)C(=O)c1ccccc1-2 | 0.01
COc1cccc(/C=C/c2ccccc2)c1 | 0.2
c1ccc(Nc2nc(Nc3ccccc3)nc(Nc3ccc4cc5ccccc5cc4c3)n2)cc1 | 0.41
O=C1OC(c2ccccc2)=N/C1=C\c1ccc(N(c2ccccc2)c2ccccc2)cc1 | 0.036

Give the reported value of photoluminescence quantum yield for this record: CCCCCCCCCCCCCCCCOc1cc(C#Cc2ccc3ccccc3c2-c2c(C#Cc3cc(OCCCCCCCCCCCCCCCC)c(C#Cc4ccc(C=C(C#N)C#N)cc4)cc3OCCCCCCCCCCCCCCCC)ccc3ccccc23)c(OCCCCCCCCCCCCCCCC)cc1C#Cc1ccc(C=C(C#N)C#N)cc1 0.97

Look up photoluminescence quantum yield of c1ccc(-c2nn(-c3ccccc3)c3nc4ccc(N(c5ccccc5)c5ccccc5)cc4cc23)cc1 and report it. 0.76

Consider the compound CC(=O)Nc1ccc2ccc3cccc4ccc1c2c34 . State its measured photoluminescence quantum yield. 0.27

Entry CN(C)c1ccc(C=C/C=C/C=C/c2ccc(C#N)cc2)cc1 needs its photoluminescence quantum yield filled in; supply it. 0.081

Please give measured photoluminescence quantum yield of the following entry: COc1cc(/C=C/c2ccccc2)cc(OC)c1 0.26
